system.name: human CYP11B1 (Homo sapiens (Human), UniProt P15538)
Sequence (P15538 25-503): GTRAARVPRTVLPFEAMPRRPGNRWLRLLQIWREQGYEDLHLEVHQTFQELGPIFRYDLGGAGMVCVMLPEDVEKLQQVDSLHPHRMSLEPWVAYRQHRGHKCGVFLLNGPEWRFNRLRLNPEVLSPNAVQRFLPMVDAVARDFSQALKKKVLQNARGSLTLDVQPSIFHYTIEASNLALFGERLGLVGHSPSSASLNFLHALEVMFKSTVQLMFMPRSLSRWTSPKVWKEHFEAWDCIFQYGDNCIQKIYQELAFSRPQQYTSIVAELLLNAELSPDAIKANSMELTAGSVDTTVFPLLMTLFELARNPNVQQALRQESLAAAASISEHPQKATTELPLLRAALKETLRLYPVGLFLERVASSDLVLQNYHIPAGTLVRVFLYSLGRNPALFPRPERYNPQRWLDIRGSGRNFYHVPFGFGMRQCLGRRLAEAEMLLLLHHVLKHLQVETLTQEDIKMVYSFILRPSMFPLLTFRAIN
experiment.notes: Cellular assay for CYP11B1 inhibition (V79MZh11B1 hamster fibroblasts, substrate 11-deoxycorticosterone)
particulars: read-out: IC50 value CYP11B1; Hamster fibroblasts expressing human CYP11B1; substrate 11-deoxycorticosterone, 100 nM; mean of at least three experiments
property: pIC50
// field semantics: pIC50 = negative decimal log of concentration (mol/L)

Worked examples follow.
Please provide the recorded pIC50 for "COc1ccccc1-c1ccc(Cn2ccnc2)cn1" , tested on human CYP11B1 (Homo sapiens (Human), UniProt P15538).
6.78

Please provide the recorded pIC50 for "c1ccc2cc(-c3ccc(Cn4ccnc4)cn3)ccc2c1" , tested on human CYP11B1 (Homo sapiens (Human), UniProt P15538).
6.61

Please provide the recorded pIC50 for c1ccc(-c2cc(Cn3ccnc3)cnc2-c2ccccc2)cc1 [Compound 35] , tested on human CYP11B1 (Homo sapiens (Human), UniProt P15538).
7.14

Please provide the recorded pIC50 for "c1cn(Cc2ccc(-c3cncnc3)nc2)cn1" , tested on human CYP11B1 (Homo sapiens (Human), UniProt P15538).
6.01

Please provide the recorded pIC50 for "Fc1cccc(-c2ccc(Cn3ccnc3)cn2)c1" , tested on human CYP11B1 (Homo sapiens (Human), UniProt P15538).
6.49

Continuing:
Please provide the recorded pIC50 for "c1csc(-c2ccc(Cn3ccnc3)cn2)c1" , tested on human CYP11B1 (Homo sapiens (Human), UniProt P15538).
7.12

Please provide the recorded pIC50 for "Clc1ccc(-c2ccc(Cn3ccnc3)cn2)s1" , tested on human CYP11B1 (Homo sapiens (Human), UniProt P15538).
6.44

Please provide the recorded pIC50 for "Nc1cccc(-c2ccc(Cn3ccnc3)cn2)c1" , tested on human CYP11B1 (Homo sapiens (Human), UniProt P15538).
6.96

Please provide the recorded pIC50 for "Nc1ccc(-c2ccc(Cn3ccnc3)cn2)cc1" , tested on human CYP11B1 (Homo sapiens (Human), UniProt P15538).
6.97

Please provide the recorded pIC50 for "COc1ccc(-c2ccc(Cn3ccnc3)cn2)cc1" , tested on human CYP11B1 (Homo sapiens (Human), UniProt P15538).
6.11

Please provide the recorded pIC50 for "c1ccc2c(-c3ccc(Cn4ccnc4)cn3)cccc2c1" , tested on human CYP11B1 (Homo sapiens (Human), UniProt P15538).
7.38

Please provide the recorded pIC50 for "N#Cc1ccc(-c2ccc(Cn3ccnc3)cn2)cc1" , tested on human CYP11B1 (Homo sapiens (Human), UniProt P15538).
6.11

Please provide the recorded pIC50 for "c1coc(-c2cc(Cn3ccnc3)cnc2-c2ccco2)c1" , tested on human CYP11B1 (Homo sapiens (Human), UniProt P15538).
7.54

Please provide the recorded pIC50 for "c1cc(Cn2ccnc2)ccn1" , tested on human CYP11B1 (Homo sapiens (Human), UniProt P15538).
6.18

Please provide the recorded pIC50 for "Brc1ccc(Cn2ccnc2)cn1" , tested on human CYP11B1 (Homo sapiens (Human), UniProt P15538).
6.30

Please provide the recorded pIC50 for "c1cncc(Cn2ccnc2)c1" , tested on human CYP11B1 (Homo sapiens (Human), UniProt P15538).
6.09

Please provide the recorded pIC50 for "N#Cc1cccc(-c2ccc(Cn3ccnc3)cn2)c1" , tested on human CYP11B1 (Homo sapiens (Human), UniProt P15538).
6.39

Please provide the recorded pIC50 for c1cc(-c2ccc(Cn3ccnc3)cn2)ccn1 [Compound 27, 5-Imidazol-1-ylmethyl-[2,4′]bipyridinyl] , tested on human CYP11B1 (Homo sapiens (Human), UniProt P15538).
6.86

====

system.name: human CYP17 (Homo sapiens (Human), UniProt P05093)
Sequence (P05093 whole entry): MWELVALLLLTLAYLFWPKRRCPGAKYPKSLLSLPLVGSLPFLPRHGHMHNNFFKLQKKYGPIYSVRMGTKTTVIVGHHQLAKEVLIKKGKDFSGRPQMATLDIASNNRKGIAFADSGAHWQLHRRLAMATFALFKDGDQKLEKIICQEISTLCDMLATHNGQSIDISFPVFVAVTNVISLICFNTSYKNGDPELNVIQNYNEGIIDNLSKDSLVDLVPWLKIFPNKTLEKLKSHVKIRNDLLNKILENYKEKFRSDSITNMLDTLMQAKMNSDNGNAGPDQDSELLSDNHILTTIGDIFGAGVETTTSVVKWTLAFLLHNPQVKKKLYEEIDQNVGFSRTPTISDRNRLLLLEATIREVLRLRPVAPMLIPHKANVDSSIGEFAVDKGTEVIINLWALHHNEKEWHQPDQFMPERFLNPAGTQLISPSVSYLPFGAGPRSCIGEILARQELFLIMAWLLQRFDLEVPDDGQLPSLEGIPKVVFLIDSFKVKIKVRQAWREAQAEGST
experiment.notes: CYP17 inhibition assay (membrane fraction of E. coli expressing human CYP17, substrate progesterone)
Format: biochemical
particulars: 25 μM, inhibitor concentration 2.0 μM, read-out: inhibition (%) CYP 17
Measured inhibition at 2 µM, listed per entry for reference.
# unit: % | format: bare number

Worked examples follow.
Please provide the recorded inhibition at 2 µM for "c1cn(Cc2ccc(-c3ccsc3)nc2)cn1" , tested on human CYP17 (Homo sapiens (Human), UniProt P05093).
3

Please provide the recorded inhibition at 2 µM for "Cc1ccc(-c2ccc(Cn3ccnc3)cn2)cc1N" , tested on human CYP17 (Homo sapiens (Human), UniProt P05093).
3

Please provide the recorded inhibition at 2 µM for "Fc1ccccc1-c1ccc(Cn2ccnc2)cn1" , tested on human CYP17 (Homo sapiens (Human), UniProt P05093).
3

Please provide the recorded inhibition at 2 µM for "Fc1ccc(-c2ccc(Cn3ccnc3)cn2)cc1" , tested on human CYP17 (Homo sapiens (Human), UniProt P05093).
5

Please provide the recorded inhibition at 2 µM for "COc1ccccc1-c1ccc(Cn2ccnc2)cn1" , tested on human CYP17 (Homo sapiens (Human), UniProt P05093).
5

Please provide the recorded inhibition at 2 µM for "O=Cc1ccc(-c2ccc(Cn3ccnc3)cn2)s1" , tested on human CYP17 (Homo sapiens (Human), UniProt P05093).
5

Continuing:
Please provide the recorded inhibition at 2 µM for "Brc1ncccc1Cn1ccnc1" , tested on human CYP17 (Homo sapiens (Human), UniProt P05093).
3

Please provide the recorded inhibition at 2 µM for "c1ccc(-c2cc(Cn3ccnc3)cnc2-c2ccccc2)cc1" , tested on human CYP17 (Homo sapiens (Human), UniProt P05093).
3

Please provide the recorded inhibition at 2 µM for "Nc1cccc(-c2ccc(Cn3ccnc3)cn2)c1" , tested on human CYP17 (Homo sapiens (Human), UniProt P05093).
3

====

system.name: human CYP11B1 (Homo sapiens (Human))
experiment.notes: Cellular assay for CYP11B1 inhibition (V79MZh11B1 hamster fibroblasts, substrate 11-deoxycorticosterone)
particulars: read-out: IC50 value CYP11B1; Hamster fibroblasts expressing human CYP11B1; substrate 11-deoxycorticosterone, 100 nM; mean of at least three experiments
property: IC50 (µM)
# unit: µM | format: bare number

Query: IC50; subject: "c1ccc2oc(-c3ccc(Cn4ccnc4)cn3)cc2c1"
0.5

Query: IC50; subject: "c1ccc(N(c2ccccc2)c2ccc(-c3ccc(Cn4ccnc4)cn3)cc2)cc1"
0.611

Query: IC50; subject: "Fc1ccccc1-c1ccc(Cn2ccnc2)cn1"
0.072

Attention now turns to another entry.
Query: IC50; subject: "O=Cc1ccc(-c2ccc(Cn3ccnc3)cn2)cc1"
0.246
